TEST_CONDITIONS: in ethyl acetate, 318.2 K
OBSERVABLE: solubility (mole fraction)
// return a plain number; no unit text

QUERY: # input molecule: "O=C(/C=C/C=C/c1ccc2c(c1)OCO2)N1CCCCC1" ; wanted: its solubility (mole fraction)
RESULT: 0.0154

----------
TEST_CONDITIONS: in sec-butanol, 313.2 K
OBSERVABLE: solubility (mole fraction)

QUERY: # input compound: "O=C(/C=C/C=C/c1ccc2c(c1)OCO2)N1CCCCC1" ; wanted: its solubility (mole fraction)
RESULT: 0.0206

----------
TEST_CONDITIONS: in water, 318.2 K
OBSERVABLE: solubility (mole fraction)
// return a plain number; no unit text

QUERY: # input compound: "O=C(/C=C/C=C/c1ccc2c(c1)OCO2)N1CCCCC1" ; wanted: its solubility (mole fraction)
RESULT: 1.52e-05

----------
TEST_CONDITIONS: in propylene glycol, 303.2 K
OBSERVABLE: solubility (mole fraction)
// return a plain number; no unit text

QUERY: # input compound: "O=C(/C=C/C=C/c1ccc2c(c1)OCO2)N1CCCCC1" ; wanted: its solubility (mole fraction)
RESULT: 0.0111

----------
TEST_CONDITIONS: in DMSO, 318.2 K
OBSERVABLE: solubility (mole fraction)
// return a plain number; no unit text

QUERY: # input compound: "O=C(/C=C/C=C/c1ccc2c(c1)OCO2)N1CCCCC1" ; wanted: its solubility (mole fraction)
RESULT: 0.0359

----------
TEST_CONDITIONS: in DMSO, 308.2 K
OBSERVABLE: solubility (mole fraction)
// return a plain number; no unit text

QUERY: # input compound: "O=C(/C=C/C=C/c1ccc2c(c1)OCO2)N1CCCCC1" ; wanted: its solubility (mole fraction)
RESULT: 0.0321

----------
TEST_CONDITIONS: in isopropanol, 313.2 K
OBSERVABLE: solubility (mole fraction)
// return a plain number; no unit text

QUERY: # input compound: "O=C(/C=C/C=C/c1ccc2c(c1)OCO2)N1CCCCC1" ; wanted: its solubility (mole fraction)
RESULT: 0.0164

----------
TEST_CONDITIONS: in PEG-400, 318.2 K
OBSERVABLE: solubility (mole fraction)
// return a plain number; no unit text

QUERY: # input compound: "O=C(/C=C/C=C/c1ccc2c(c1)OCO2)N1CCCCC1" ; wanted: its solubility (mole fraction)
RESULT: 0.0788

----------
TEST_CONDITIONS: in water, 303.2 K
OBSERVABLE: solubility (mole fraction)

QUERY: # input compound: "O=C(/C=C/C=C/c1ccc2c(c1)OCO2)N1CCCCC1" ; wanted: its solubility (mole fraction)
RESULT: 1.18e-05

----------
TEST_CONDITIONS: in methanol, 298.2 K
OBSERVABLE: solubility (mole fraction)
// return a plain number; no unit text

QUERY: # input molecule: "O=C(/C=C/C=C/c1ccc2c(c1)OCO2)N1CCCCC1" ; wanted: its solubility (mole fraction)
RESULT: 0.00527

----------
TEST_CONDITIONS: in n-butanol, 308.2 K
OBSERVABLE: solubility (mole fraction)

QUERY: # input compound: "O=C(/C=C/C=C/c1ccc2c(c1)OCO2)N1CCCCC1" ; wanted: its solubility (mole fraction)
RESULT: 0.0183

----------
TEST_CONDITIONS: in sec-butanol, 303.2 K
OBSERVABLE: solubility (mole fraction)
// return a plain number; no unit text

QUERY: # input molecule: "O=C(/C=C/C=C/c1ccc2c(c1)OCO2)N1CCCCC1" ; wanted: its solubility (mole fraction)
RESULT: 0.017

----------
TEST_CONDITIONS: in transcutol, 303.2 K
OBSERVABLE: solubility (mole fraction)
// return a plain number; no unit text

QUERY: # input compound: "O=C(/C=C/C=C/c1ccc2c(c1)OCO2)N1CCCCC1" ; wanted: its solubility (mole fraction)
RESULT: 0.0826

----------
TEST_CONDITIONS: in n-butanol, 318.2 K
OBSERVABLE: solubility (mole fraction)
// return a plain number; no unit text

QUERY: # input compound: "O=C(/C=C/C=C/c1ccc2c(c1)OCO2)N1CCCCC1" ; wanted: its solubility (mole fraction)
RESULT: 0.022

----------
TEST_CONDITIONS: in ethylene glycol, 318.2 K
OBSERVABLE: solubility (mole fraction)

QUERY: # input compound: "O=C(/C=C/C=C/c1ccc2c(c1)OCO2)N1CCCCC1" ; wanted: its solubility (mole fraction)
RESULT: 0.0067

----------
TEST_CONDITIONS: in ethylene glycol, 298.2 K
OBSERVABLE: solubility (mole fraction)
// return a plain number; no unit text

QUERY: # input compound: "O=C(/C=C/C=C/c1ccc2c(c1)OCO2)N1CCCCC1" ; wanted: its solubility (mole fraction)
RESULT: 0.00386
